test: growth inhibition of CRL1545 osteosarcoma cells, cell-based, cisplatin and BGB IC20 combos (AID 1671464); details: at 0.5 µM, stronger effect = higher value;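 also: cells exposed to compound for 96 hours before readout; 0% = vehicle DMSO and 100% = high DMSO killing control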
Measured inhibition values are reported for all entries that follow.
Just the number please, in %, no unit attached.

molecule: NC(=O)c1ncn(C2OC(CO)C(O)C2O)n1 (stereo unspecified)
inhibition / %: -15.9
//
molecule: CC(C)N=c1cc2n(-c3ccc(Cl)cc3)c3ccccc3nc-2cc1Nc1ccc(Cl)cc1
inhibition / %: -22.8
//
molecule: O=c1[nH]c(-c2ccc(C(F)(F)F)cc2)nc2c1CSCC2
inhibition / %: -34.9
//
molecule: Cc1c(-c2cnccn2)ssc1=S
inhibition / %: -60.7
//
molecule: O=c1cc(-c2cccc3c2Sc2ccccc2S3)oc(N2CCOCC2)c1
inhibition / %: -32.7

Turning to the following molecule.
Data request: Reported inhibition, molecule `CO[C@H]1/C=C/O[C@@]2(C)Oc3c(C)c(O)c4c(O)c(c(C=NN5CCN(C)CC5)c(O)c4c3C2=O)NC(=O)/C(C)=C\C=C\[C@H](C)[C@H](O)[C@@H](C)[C@@H](O)[C@@H](C)[C@H](OC(C)=O)[C@@H]1C` : ____
Data returned: -32.1

---

test: HepG2 cytotoxicity, primary screen, cytotoxicity control for P. falciparum antimalarial project, cell-based, ATP luminescence (AID 2303); details: HepG2 viability, 24-48 h, at 10 µM, stronger effect = higher value;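 also: 0% = DMSO wells and 100% = digitonin-killed cells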
Listed compounds paired with reported inhibition
Form entry: value (%) — number only.

Examples with their reported inhibition follow.
compound: CC(C)C[C@H](NC(=O)c1cc2ccccc2s1)C(=O)N[C@H]1CCN(Cc2ccc(OC[C@@H]3CCCN3C)c3ccccc23)C1
inhibition [%]: 69

compound: CC(C)(CNC(=O)C1CCN(Cc2ccoc2)CC1)c1nc(-c2ccc(Cl)c(O)c2)c(-c2ccncc2)[nH]1
inhibition [%]: -12

compound: COC(=O)CNC(c1ccccc1)c1cc(Br)ccc1NC(=O)c1ccccc1Br (stereo not drawn)
inhibition [%]: 10

compound: CN1CCN(Cc2ccc(-c3ccc4c(Nc5ccc(Cl)cc5F)ccnc4c3)o2)CC1
inhibition [%]: 47

Data request: Could you share which inhibition value was measured for `CC(C)(C)NCCN(Cc1ccc(-c2ccc(C(F)(F)F)cc2)cc1)C(=O)Cn1c(CCc2cccc(F)c2F)nc(=O)c2c1CCC2` ?
Data returned: 6

Data request: Same for `O=C(NNC(=O)c1ccc(CCN2CCC(c3nc(COCC(F)(F)F)c(-c4ccc(F)cc4)o3)CC2)cc1)Nc1ccc(Oc2ccccc2)cc1`
Data returned: 38

Data request: Further, for `COc1ccc(-c2nc3c(NCc4ccccc4)nccc3[nH]2)c(OC)c1` ?
Data returned: 16

Data request: Check `CCCCCOc1ccc(N2C(N)=NC(N)=NC2(C)C)cc1` too.
Data returned: 24

---

test: inhibitors of polyQ protein aggregation (AID 1604); conditions: polyglutamine-induced protein aggregation inhibition assay; stronger effect = higher value; tested at 2.5 µM
test-readout: inhibition of aggregation (%)
Could you give me the number in %? Just the number is fine.

Example compounds with recorded inhibition of aggregation:
compound: CC1(C)C2CC[C@]3(C)C(C(=O)C=C4[C@@H]5C[C@@](C)(C(=O)O)CC[C@]5(C)CC[C@]43C)[C@@]2(C)CC[C@@H]1OC(=O)CCC(=O)O (stereo partly drawn)
test-readout: inhibition of aggregation
obs-value: 66.7
--
compound: Nc1ccn(C2O[C@H](CO)[C@@H](O)[C@H]2O)c(=O)n1 (stereo partly drawn)
test-readout: inhibition of aggregation
obs-value: 63.9

Data request: // lookup inhibition of aggregation for `CC[C@H]1OC(=O)[C@H](C)[C@@H](O[C@H]2C[C@@](C)(OC)[C@@H](O)[C@H](C)O2)[C@H](C)[C@@H](O[C@@H]2O[C@H](C)C[C@H](N(C)C)[C@H]2O)[C@](C)(O)C[C@@H](C)CN(C)[C@H](C)[C@@H](O)[C@]1(C)O`
Data returned: 65.2

---

system: Hepatitis C virus NS3 helicase; experiment: HCV NS3 helicase inhibitors, primary screen, biochemical, fluorescence polarization, LOPAC1280 library (AID 687035); details: Purified HCV NS3 helicase, Cy5-dT15 ssDNA binding fluorescence polarization; stronger effect = higher value; concentration not given here
Activity calls are given as the source filed them. No stated cut-off is given here; in the data, active means inhibition above about 37%; inactive means the rest.
test-readout: inhibition

Solved cases (4 shown):
compound: Oc1cc2c(cc1O)C(c1ccccc1)CNCC2 (stereo not given)
obs-value: -3% (inactive)
--
compound: C[C@H](NC(=O)/C(C#N)=C/c1ccc(O)c(O)c1)c1ccccc1
obs-value: -1% (inactive)
--
compound: Nc1nc(N)c2nc(CNc3ccc(C(=O)NC(CCC(=O)O)C(=O)O)cc3)cnc2n1 (stereo not given)
obs-value: -4% (inactive)
--
compound: CCCc1c(-c2ccc(O)cc2)nn(-c2ccc(O)cc2)c1-c1ccc(O)cc1
obs-value: -1% (inactive)

Data request: Report inhibition for CC1CC2C3CCC4=CC(=O)C=C[C@]4(C)[C@@]3(F)[C@@H](O)C[C@]2(C)[C@@]1(O)C(=O)CO (stereo not given in full) please.
Data returned: -1% (inactive)

Data request: Entry `CC(C)(Sc1ccc(CCN(CCCCC2CCCCC2)C(=O)NC2CCCCC2)cc1)C(=O)O` please
Data returned: 3% (inactive)

Data request: Another compound to check: `O=C(OCCN1CCOCC1)C1(c2ccccc2)CCCCC1`
Data returned: -2% (inactive)

Data request: # repeat for `CC(C)c1ccc2c(c1)c(SC(C)(C)C)c(CC(C)(C)C(=O)O)n2Cc1ccc(Cl)cc1`
Data returned: 0% (inactive)

Data request: Input `CC[N+](CC)(CC)CC(=O)Nc1c(C)cccc1C`
Data returned: -2% (inactive)

---

Entries and their measured remaining activity follow.
tested on: Aerobactin synthetase IucA (Klebsiella pneumoniae); assay: IucA aerobactin synthetase inhibitors, biochemical, Tocris library, absorbance (AID 1345561); settings: purified IucA enzyme assay, absorbance (OD) read-out; stronger effect = lower value;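 tested at 8 µM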;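 also: 100% = enzyme without compound and 0% = no enzyme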
Lab book: enter the figure in %, no units written.

molecule: c1ccc(C(NCCNC(c2ccccc2)c2ccccc2)c2ccccc2)cc1
units-of-measure: %
remaining activity: 112
//
molecule: COc1nccc(-c2c(-c3ccc(F)cc3)ncn2C2CCC(O)CC2)n1 (configuration not stated)
units-of-measure: %
remaining activity: 92.5
//
molecule: CNCC[C@@H](Oc1ccccc1C)c1ccccc1
units-of-measure: %
remaining activity: 96.2
//
molecule: CC[C@H](NC(C)C)[C@H](O)c1ccc(O)c2[nH]c(=O)ccc12
units-of-measure: %
remaining activity: 95.2
//
molecule: CCCCCCCCCCCCCCCC(=O)OC(CC(=O)O)C[N+](C)(C)C (configuration not stated)
units-of-measure: %
remaining activity: 122

Data request: Request the reported remaining activity associated with `O=Nc1c(-c2c(O)[nH]c3ccccc23)[nH]c2ccccc12`
Data returned: 116

Data request: Then `Clc1ccc(-c2nc3sccn3c2/C=N/OCc2ccc(Cl)c(Cl)c2)cc1` ?
Data returned: 112

Data request: Okay, and `CC(C)(C)/[N+]([O-])=C/c1ccc(S(=O)(=O)O)cc1S(=O)(=O)O` ?
Data returned: 104

Data request: Query `O=c1[nH]c(-c2ccc(C(F)(F)F)cc2)nc2c1CSCC2` next
Data returned: 117

Data request: Next molecule: `CS(=O)(=O)c1ccc(-c2cc(Br)sc2-c2ccc(F)cc2)cc1`
Data returned: 111

Data request: Record: `O=c1[nH]nc(Sc2ncc([N+](=O)[O-])s2)n1-c1ccc2c(c1)OCCO2`
Data returned: 125

Data request: Ok, now `CCCCCCCCCCC(C)(C)C(=O)Nc1c(OC)cc(OC)cc1OC`
Data returned: 89.7

Data request: // next record CCCCN1CCCC1CNC(=O)c1cc(C#N)c2ccccc2c1OC (configuration not stated)
Data returned: 113

Data request: Proceed to `Cc1ccccc1C(=O)c1ccc(Nc2ccc(Br)cc2N)cc1Cl`
Data returned: 120

Data request: Try the molecule `N#C/C(=C\c1ccc(O)c(O)c1)C(=O)NCc1ccccc1`
Data returned: 113

Data request: Param item: `Cc1ccc(O)c(N=Nc2ccccc2)n1`
Data returned: 110

Data request: Entry `CN1CCc2cccc3c2[C@H]1Cc1ccc(O)c(O)c1-3` please
Data returned: 113

---

Catalogue of glutamate uptake change values
experiment: enhancers of glutamate uptake in motor neurons, MN-1 cell line (AID 1612); settings: MN-1 motor neuron cells, stronger effect = higher value;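 also: tested at 1 µM final; 0% = mean of DMSO vehicle wells on each plate; positive means more glutamate uptake than control and negative means less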
Unit % implied. Number only.

Take a look at these entries with their results.
compound: COC1=CC(C)[C@@H]2C[C@H]3OC(=O)C[C@H]4C(C)=C(OC)C(=O)C([C@@]34C)[C@@]2(C)C1=O (stereo partly specified)
glutamate uptake change / %: 12.8
//
compound: CC[C@H]1OC(=O)[C@H](C)[C@@H](O[C@H]2C[C@@](C)(OC)[C@@H](O)[C@H](C)O2)[C@H](C)[C@@H](O[C@@H]2O[C@H](C)C[C@H](N(C)C)[C@H]2O)[C@](C)(O)C[C@@H](C)CN(C)[C@H](C)[C@@H](O)[C@]1(C)O
glutamate uptake change / %: 5.3
//
compound: O=C(O)C1CCCNC1 (stereo unspecified)
glutamate uptake change / %: -1.16
//
compound: CN[C@@H]1[C@H](OC2[C@H](O[C@H]3[C@H](O)[C@@H](O)[C@H](N=C(N)N)[C@@H](O)[C@@H]3N=C(N)N)O[C@@H](C)[C@]2(O)C=O)O[C@@H](CO)[C@H](O)[C@H]1O (stereo partly specified)
glutamate uptake change / %: 10.8
//
compound: CC1(C)O[C@@H]2CC3C4C[C@H](F)C5=CC(=O)CC[C@]5(C)C4[C@@H](O)C[C@]3(C)[C@]2(C(=O)CO)O1 (stereo partly specified)
glutamate uptake change / %: 17
//
compound: CCN1CCN(C(=O)NC(C(=O)N[C@@H]2C(=O)N3[C@@H]2SC(C)(C)[C@@H]3C(=O)O)c2ccccc2)C(=O)C1=O (stereo partly specified)
glutamate uptake change / %: 3.02
//
compound: CC1(C)C2CC[C@]3(C)C(C(=O)C=C4[C@H]5C[C@@](C)(C(=O)O)CC[C@]5(C)CC[C@]43C)[C@@]2(C)CC[C@@H]1O (stereo partly specified)
glutamate uptake change / %: -60.4
//
compound: CC(=O)OCC(=O)[C@@]1(O)[C@H](OC(C)=O)CC2C3CCC4=CC(=O)C=C[C@]4(C)[C@@]3(F)[C@@H](O)C[C@@]21C (stereo partly specified)
glutamate uptake change / %: 9.09

Data request: Look at this compound and give its reported glutamate uptake change. Cc1onc(-c2ccccc2)c1C(=O)NC1C(=O)N2[C@@H]1SC(C)(C)[C@@H]2C(=O)O (stereo partly specified)
Data returned: -21.8

Data request: Same thing, different compound: CCOC(=O)OC(C)OC(=O)C1N2C(=O)C(NC(=O)[C@H](N)c3ccccc3)C2SC1(C)C (stereo partly specified)
Data returned: -13.3

Data request: Next: `CO/N=C(/C(=O)N[C@@H]1C(=O)N2C(C(=O)O)=C(COC(C)=O)CS[C@H]12)c1csc(N)n1`
Data returned: -17.6

Data request: // same read-out, input: CC(=O)Oc1ccc2c(c1)CCC1C2CC[C@@]2(C)C1CC[C@@H]2OC(C)=O (stereo partly specified)
Data returned: -3

Data request: Proceed to C[C@]12CCC3c4ccc(O)cc4CCC3C1CC[C@@H]2O (stereo partly specified)
Data returned: 35.2
